Molecular target: human Hsp90
Experiment: Fluorescence polarization (FP) displacement assay, GA-FITC, Hsp90
Type: binding
Settings: FP displacement of GA-FITC; 50 nM Hsp90; read-out: Biochemical efficacy HSP90 Ki
Source text: Prior to transforming into BL21 (DE3) all the cloned vectors were sequence confirmed. Expressed proteins were purified using NTA resin (Life Technologies) followed by size exclusion chromatography using FPLC. The molecular mass of the purified proteins was confirmed by MALDI-TOF and assessed for purity by SDS-PAGE. […]
pKi: −log10 of the molar value.
OBSERVABLE: pKi

- COMPOUND: "COc1ccnc(CN(CC2(c3ccc(F)cc3)CCOCC2)c2cc(Cl)nc(N)n2)c1C [Compound C]"
  pKi: 7.66

[1] Cc1cnc(CN(CC2(c3ccc(F)cc3)CCOCC2)c2cc(Cl)nc(N)n2)c(C)c1Cl [Compound B]
[2] COc1c(C)cnc(CN(CC2(c3ccccn3)CCOCC2)c2cc(Cl)nc(N)n2)c1C [Compound E]
Between 1 and 2 , which one has the lower reported pKi value? Returns: label corresponding to the selected item.
2
(2: 7.62, 1: 8.10)

====

Tested on: GBM39
Assay: Cellular efficacy in Mayo Clinic GBM PDX cell line GBM39
Format: cell-based
OBSERVABLE: EC50 (µM)

[1] Cc1cnc(CN(CC2(c3ccc(F)cc3)CCOCC2)c2cc(Cl)nc(N)n2)c(C)c1Cl
[2] COc1c(C)cnc(CN(CC2(c3ccc(F)cc3)CCOCC2)c2cc(Cl)nc(N)n2)c1C
Please tell me which of the two, 1 or 2 , has the higher reported EC50 value. Returns: label corresponding to the selected item.
1

====

Target: TRAP1 (Homo sapiens, UniProt Q12931)
Construct: Recombinant full-length human Hsp90 and 459 TRAP1 were cloned; 6His (TEV-cleavable) (N)
Sequence (Q12931 60-704): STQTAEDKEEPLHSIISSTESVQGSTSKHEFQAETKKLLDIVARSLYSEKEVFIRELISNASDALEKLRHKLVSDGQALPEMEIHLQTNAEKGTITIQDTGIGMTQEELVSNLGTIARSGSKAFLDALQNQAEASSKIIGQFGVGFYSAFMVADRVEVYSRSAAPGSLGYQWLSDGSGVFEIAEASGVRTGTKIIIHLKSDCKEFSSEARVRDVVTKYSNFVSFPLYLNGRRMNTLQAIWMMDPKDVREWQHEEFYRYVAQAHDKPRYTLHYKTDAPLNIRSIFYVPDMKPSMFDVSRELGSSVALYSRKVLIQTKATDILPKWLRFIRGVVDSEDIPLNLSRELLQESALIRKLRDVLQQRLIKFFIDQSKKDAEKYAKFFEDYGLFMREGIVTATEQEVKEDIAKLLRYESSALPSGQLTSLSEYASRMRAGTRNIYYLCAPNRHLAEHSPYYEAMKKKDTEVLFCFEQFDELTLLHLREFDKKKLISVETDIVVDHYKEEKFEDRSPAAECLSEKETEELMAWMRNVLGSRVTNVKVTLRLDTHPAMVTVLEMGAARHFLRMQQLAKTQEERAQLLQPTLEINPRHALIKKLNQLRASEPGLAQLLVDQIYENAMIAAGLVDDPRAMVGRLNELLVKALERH
Assay: Fluorescence polarization (FP) displacement assay, GA-FITC, TRAP1
Conditions: FP displacement of GA-FITC; 200 nM TRAP1; read-out: Biochemical efficacy TRAP1 IC50
OBSERVABLE: IC50 (nM)

[1] COc1c(C)cnc(CN(CC2(c3cccc(C)n3)CCOCC2)c2cc(Cl)nc(N)n2)c1C
[2] Cc1cnc(CN(CC2(c3ccc(F)cc3)CCOCC2)c2cc(Cl)nc(N)n2)c(C)c1Cl
[3] COc1c(C)cnc(CN(CC2(c3ccc(F)cc3)CCOCC2)c2cc(Cl)nc(N)n2)c1C
[4] COc1c(C)cnc(CN(CC2(c3ccccn3)CCOCC2)c2cc(Cl)nc(N)n2)c1C
Quick one: which order do the items above go in by IC50, smallest to largest? Write the labels in rank order as requested.
2, 3, 1, 4
(2: 85 nM, 3: 312 nM, 1: 543 nM, 4: 1100 nM)

====

Target: TRAP1 (Homo sapiens, UniProt Q12931)
Construct: Recombinant full-length human Hsp90 and 459 TRAP1 were cloned; 6His (TEV-cleavable) (N)
Sequence (Q12931 60-704): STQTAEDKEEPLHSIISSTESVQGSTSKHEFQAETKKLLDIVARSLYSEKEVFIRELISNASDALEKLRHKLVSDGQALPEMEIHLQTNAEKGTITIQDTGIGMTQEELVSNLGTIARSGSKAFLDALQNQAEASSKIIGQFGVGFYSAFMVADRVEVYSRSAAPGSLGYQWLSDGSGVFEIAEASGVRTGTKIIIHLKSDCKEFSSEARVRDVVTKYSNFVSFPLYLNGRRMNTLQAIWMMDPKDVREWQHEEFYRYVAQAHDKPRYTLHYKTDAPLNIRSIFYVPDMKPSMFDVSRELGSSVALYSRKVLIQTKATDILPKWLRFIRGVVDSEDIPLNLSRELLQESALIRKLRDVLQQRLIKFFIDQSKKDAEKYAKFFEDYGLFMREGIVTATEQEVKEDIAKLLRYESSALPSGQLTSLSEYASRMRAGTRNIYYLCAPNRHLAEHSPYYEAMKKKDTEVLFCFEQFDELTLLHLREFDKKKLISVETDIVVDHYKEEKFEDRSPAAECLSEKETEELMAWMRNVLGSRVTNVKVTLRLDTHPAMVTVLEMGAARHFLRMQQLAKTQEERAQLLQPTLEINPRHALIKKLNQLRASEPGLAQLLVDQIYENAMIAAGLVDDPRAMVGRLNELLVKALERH
Test: Fluorescence polarization (FP) displacement assay, GA-FITC, TRAP1
Details: FP displacement of GA-FITC; 200 nM TRAP1; NA: Not active; read-out: Biochemical efficacy TRAP1 Ki
Description: Prior to transforming into BL21 (DE3) all the cloned vectors were sequence confirmed. Expressed proteins were purified using NTA resin (Life Technologies) followed by size exclusion chromatography using FPLC. The molecular mass of the purified proteins was confirmed by MALDI-TOF and assessed for purity by SDS-PAGE. […]
OBSERVABLE: Ki (nM)

Solved cases (2 shown):
- STRUCTURE SMILES: "COc1c(C)cnc(CN(CC2(c3cccc(C)n3)CCOCC2)c2cc(Cl)nc(N)n2)c1C"
  Ki (nM): 68
- STRUCTURE SMILES: "COc1c(C)cnc(CN(CCc2ccccn2)c2cc(Cl)nc(N)n2)c1C"
  Ki (nM): 50.4

[I] COc1c(C)cnc(CN(CC2(c3ccc(F)cc3)CCOCC2)c2cc(Cl)nc(N)n2)c1C
[II] COc1c(C)cnc(CN(CC2(c3ccccn3)CCOCC2)c2cc(Cl)nc(N)n2)c1C
[III] Cc1cnc(CN(CC2(c3ccc(F)cc3)CCOCC2)c2cc(Cl)nc(N)n2)c(C)c1Cl
Rank items: key Ki, increasing. Write the labels in rank order as requested.
III, I, II

====

Target: human Hsp90
Test: Fluorescence polarization (FP) displacement assay, GA-FITC, Hsp90
Conditions: FP displacement of GA-FITC; 50 nM Hsp90; read-out: Biochemical efficacy HSP90 IC50
pIC50: −log10 of the molar value.
OBSERVABLE: pIC50

Solved cases (3 shown):
- STRUCTURE SMILES: "COc1c(C)cnc(CN(CC2(c3ccccn3)CCOCC2)c2cc(Cl)nc(N)n2)c1C"
  pIC50: 7.02
- STRUCTURE SMILES: "COc1c(C)cnc(CN(CC2(c3cccc(C)n3)CCOCC2)c2cc(Cl)nc(N)n2)c1C"
  pIC50: 7.27
- STRUCTURE SMILES: "COc1c(C)cnc(CN(CC2(c3ccc(F)cc3)CCOCC2)c2cc(Cl)nc(N)n2)c1C"
  pIC50: 7.36

[A] Cc1cnc(CN(CC2(c3ccc(F)cc3)CCOCC2)c2cc(Cl)nc(N)n2)c(C)c1Cl
[B] COc1ccnc(CN(CC2(c3ccc(F)cc3)CCOCC2)c2cc(Cl)nc(N)n2)c1C
Between A and B , which one has the lower reported pIC50 value? Returns: label corresponding to the selected item.
B
(B: 7.06, A: 7.48)

====

Molecular target: human Hsp90
Test: Fluorescence polarization (FP) displacement assay, GA-FITC, Hsp90
Settings: FP displacement of GA-FITC; 50 nM Hsp90; read-out: Biochemical efficacy HSP90 Ki
pKi: −log10 of the molar value.
OBSERVABLE: pKi

- STRUCTURE SMILES: "COc1c(C)cnc(CN(CCc2ccccn2)c2cc(Cl)nc(N)n2)c1C"
  OBSERVABLE: "pKi"
  READOUT NUMBER: 7.40
- STRUCTURE SMILES: "COc1c(C)cnc(CN(CC2(c3ccc(F)cc3)CCOCC2)c2cc(Cl)nc(N)n2)c1C"
  OBSERVABLE: "pKi"
  READOUT NUMBER: 7.96
- STRUCTURE SMILES: "COc1c(C)cnc(CN(CC2(c3cccc(C)n3)CCOCC2)c2cc(Cl)nc(N)n2)c1C"
  OBSERVABLE: "pKi"
  READOUT NUMBER: 7.85
